apparent KD of MS2 coat protein listing for selected sequences.
Tested on: MS2 coat protein
Test: apparent KD of MS2 coat protein; designed switch direction (-1 OFF switch, 1 ON switch): -1; higher = weaker reporter binding
Details: Eterna round: R95; input ligand: FMN 200 uM

{"SEQ TEXT": "AGUAACUAUCACGAAAGUGAUAGUUACACAAGUGUAAUAACAUGAGGAUCACCCAUGUCCUCAUUUGCUCGUCUUAU [Sensor 3 - 34] (puzzle: Sensor v3, turn-off variant 2)", "OUTPUT UNIT": "nM", "apparent KD of MS2 coat protein": 149}
{"SEQ TEXT": "GGUACUAACACGAUAGUGUUAGUACUAUAAGCUUGUGUUACAUGAGGAUCACCCAUGUCCUCAUAGGCUCGUCUUAU [Mat - Sensor v3 - Turn-off var 2 - D86] (puzzle: Sensor v3, turn-off variant 2)", "OUTPUT UNIT": "nM", "apparent KD of MS2 coat protein": 169}
{"SEQ TEXT": "UUUUAACAUGAGGAUCACCCAUGUGAGGAUAUCGUAUUUUUUUUUUUUUUUUUUUUUUCGAGAAGGCACAUUUU [My solution] (puzzle: Exclusion 1)", "OUTPUT UNIT": "nM", "apparent KD of MS2 coat protein": 1.24}
{"SEQ TEXT": "GGAAAACAUGAGGAUCACCCAUGUAAGGAUAUGCAAAAGGAUAUAGAAGGAAAAAAAAGCAGAAGGUACAAAGG [salish99-ex1_r3_094] (puzzle: Exclusion 1)", "OUTPUT UNIT": "nM", "apparent KD of MS2 coat protein": 132}
{"SEQ TEXT": "AGUAGGUCUACCUUGGUGGAUCUGCAUUAUUCAAGUGUUACAUGAGGAUCACCCAUGUCCUCAUUUGCUCGUCUUAU [JL turnoff v2 99.25] (puzzle: Sensor v3, turn-off variant 2)", "OUTPUT UNIT": "nM", "apparent KD of MS2 coat protein": 385}
{"SEQ TEXT": "GAAAAGGUAGGAUAUACGAAAACAAAGGGUAGAAACAAAACACAUGAGGAUCACCCAUGUAGAAGGACCAAAAG [salish99_ex2_r3_097] (puzzle: Exclusion 2)", "OUTPUT UNIT": "nM", "apparent KD of MS2 coat protein": 164}
{"SEQ TEXT": "UAAAAGGUAGGAUAUACGAAAAAAAAGGGUAGAAAAAAAACACAUGAGGAUCACCCAUGUAGAAGGACCAAAAU [salish99_ex2_r3_041] (puzzle: Exclusion 2)", "OUTPUT UNIT": "nM", "apparent KD of MS2 coat protein": 89.7}
{"SEQ TEXT": "UUAAGCUUUGAGAUCCUUAACAUGAGGAUCACCCAUGUUCGUCUUAUGAUGGUCUGAUCCCUGAGGAUCGGACCGUU [Mat - Sensor v3 - turn-off var 1 - JL Mod - D3] (puzzle: Sensor v3, turn-off variant 1)", "OUTPUT UNIT": "nM", "apparent KD of MS2 coat protein": 261}
{"SEQ TEXT": "AUAUAACAUGAGGAUCACCCAUGUGAGGAUAUGCGAUAUAUAAUAAUAAUAAUAAUAAGCAGAAGGCACAAAAU [My FIrst Design] (puzzle: Exclusion 1)", "OUTPUT UNIT": "nM", "apparent KD of MS2 coat protein": 60.2}
{"SEQ TEXT": "AAUAACAAGUAGAUCCUAAACAUGAGGAUCACCCAUGUGCUCGUCUUGUAAAGUACUAUCACGAAAGUGAUAGUACA [Sensor 3, v1 - 58] (puzzle: Sensor v3, turn-off variant 1)", "OUTPUT UNIT": "nM", "apparent KD of MS2 coat protein": 67}
{"SEQ TEXT": "GAUUAUGCGAGCUUUAGGGACAUGAGGAUCACCCAUGUUCGUCUUAUUGGUCUGAGUACACUGACAUACCUAAAUCU [JMF 63] (puzzle: Sensor v3, turn-off variant 1)", "OUTPUT UNIT": "nM", "apparent KD of MS2 coat protein": 13.3}
{"SEQ TEXT": "GAAAAGUGAGGAUAUGGUAAAAGAAAAAGAAAAAAAAAACUCCAGAAGGCACAUGAGGAUCACCCAUGUAAAAG [salish99_ex4_r3_004] (puzzle: Exclusion 4)", "OUTPUT UNIT": "nM", "apparent KD of MS2 coat protein": 33.5}
{"SEQ TEXT": "CGUACUGAAGUGAGGAUAUUGUCUCGGAUACGAAACAAGAAGGCACAUGAGGAUCACCCAUGUUAACAGUACGA [Malc #30 mod 9] (puzzle: Brourd's mod of Exclusion 4)", "OUTPUT UNIT": "nM", "apparent KD of MS2 coat protein": 15.2}
{"SEQ TEXT": "AGUACUAACACGAAAGUGUUAGUACAAUAAGCUUGUGAAACAUGAGGAUCACCCAUGUCCUCAUUAGCUCGUCUUAU [salish99_TOv2_r3_050] (puzzle: Sensor v3, turn-off variant 2)", "OUTPUT UNIT": "nM", "apparent KD of MS2 coat protein": 184}
{"SEQ TEXT": "GGAAAGCAAGGAUAUACAAGUAAACGACGGAAAGUAGAGAGACAUGAGGAUCACCCAUGUAGAAGGUGCGAGAG [JR_Exclu2_Sub035] (puzzle: Exclusion 2)", "OUTPUT UNIT": "nM", "apparent KD of MS2 coat protein": 19}
{"SEQ TEXT": "AAGAAACAUGAGGAUCACCCAUGUGAGGAUAUGACAAAGAAAAGAAAAGAAAGAAGACUCAGAAGGCACAAAGG [salish99-ex1_r3_039] (puzzle: Exclusion 1)", "OUTPUT UNIT": "nM", "apparent KD of MS2 coat protein": 46.3}
{"SEQ TEXT": "AAGUACCGUCACGAUAGUGAUGGUACAACAGGUAAAUGUACAUGAGGAUCACCCAUGUCCUCUUUUGCUCGUCUUAU [Sensor 3 - 93] (puzzle: Sensor v3, turn-off variant 2)", "OUTPUT UNIT": "nM", "apparent KD of MS2 coat protein": 147}
{"SEQ TEXT": "UUUAAUUUUUUUUUUUUACAAGCUUUUUGCUCGUCUUAUACAUGAGGAUCACCCAUGUGGGUAAAGGAUAAAUUAUC [JMF 25] (puzzle: Sensor v3, turn-off variant 2)", "OUTPUT UNIT": "nM", "apparent KD of MS2 coat protein": 31.6}
{"SEQ TEXT": "GUUAGACAUGAGGAUCACCCAUGUGAGGAUAUGAUGCGAAUAAUGAAUGAAGAAAGCAUCAGAAGGCACAUAUG [Mat - Mod of Hyphema D29] (puzzle: Exclusion 1)", "OUTPUT UNIT": "nM", "apparent KD of MS2 coat protein": 375}
{"SEQ TEXT": "AUAGUAGAAGUGAGGAUAUCGUAGAUUUUAGGAAACGAGAAGGCACAUGAGGAUCACCCAUGUAAGAUGGAGGU [JR_BMOE4_Sub051] (puzzle: Brourd's mod of Exclusion 4)", "OUTPUT UNIT": "nM", "apparent KD of MS2 coat protein": 104}
